For each entry below, report its IC50 value.
Target System: D3 DAR (Homo sapiens, UniProt P35462)
Sequence (P35462 whole entry): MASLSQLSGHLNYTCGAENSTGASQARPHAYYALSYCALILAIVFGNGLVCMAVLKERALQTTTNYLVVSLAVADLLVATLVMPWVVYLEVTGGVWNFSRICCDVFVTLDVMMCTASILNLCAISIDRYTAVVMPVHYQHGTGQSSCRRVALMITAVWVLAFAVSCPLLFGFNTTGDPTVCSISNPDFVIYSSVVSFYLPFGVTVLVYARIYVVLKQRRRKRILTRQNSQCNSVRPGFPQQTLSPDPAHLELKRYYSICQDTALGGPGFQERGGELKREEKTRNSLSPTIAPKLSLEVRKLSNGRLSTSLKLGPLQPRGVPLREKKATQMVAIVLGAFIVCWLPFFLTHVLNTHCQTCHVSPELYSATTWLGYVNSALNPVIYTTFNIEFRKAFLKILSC
Protocol Notes: DiscoverX D3 DAR β-arrestin recruitment assay
Format: cell-based
Set-up: host or cells: CHO
Condition Set: EC80 concentration of DA (30 nM); read-out: D3 DAR IC50

Sample `CCc1ccc(NS(=O)(=O)c2c(C)[nH]c(C)c2C(=O)N2CCCC2)cc1` ; IC50 observed: < 10 µM

Sample `Cc1ccc(NS(=O)(=O)c2c(C)[nH]c(C)c2C(=O)N2CCC(F)(F)C2)cc1Cl` ; IC50 observed: 10 to 50 µM

Sample `Cc1[nH]c(C)c(S(=O)(=O)Nc2ccc(S(F)(F)(F)(F)F)cc2)c1C(=O)N1CCC(F)(F)C1` ; IC50 observed: < 10 µM

Reference source: patent US20240336604A1
